- Tested on: HRV14
- test.method.notes: HRV14-induced CPE in less sensitive (Berlin) HeLa strain, XTT test
- Type: cell-based, human rhinovirus
- assay.setup: day 1; read-out: EC50 to prevent a cytopathic effect
pEC50: −log10 of the molar value.
property.label: pEC50

Enter reported pEC50 observed with HRV14 for O=C(O[C@@H]1Cc2c(O)cc(O)cc2O[C@@H]1c1cc(O)c(O)c(O)c1)c1cc(O)c(O)c(O)c1 [EGCg, (−)-epigallocatechin-3-gallate] > 7.00

* * *

- Tested on: HIV
- test.method.notes: Infectivity of HIV in MT-2 cells or PBMCs at different control virus titers
- Format: cell-based
- assay.setup: control virus production of 14,000 infective particles/ml; read-out: EC50 reducing infectivity of HIV
property.label: EC50

Form field: reported EC50 of O=C(O[C@@H]1Cc2c(O)cc(O)cc2O[C@@H]1c1cc(O)c(O)c(O)c1)c1cc(O)c(O)c(O)c1 [EGCg, (−)-epigallocatechin-3-gallate] ~1000 nM
